Cited source: ChEMBL document CHEMBL2157910

measured target: Sodium/glucose cotransporter 2 (Homo sapiens, UniProt P31639)
Sequence (P31639 whole entry): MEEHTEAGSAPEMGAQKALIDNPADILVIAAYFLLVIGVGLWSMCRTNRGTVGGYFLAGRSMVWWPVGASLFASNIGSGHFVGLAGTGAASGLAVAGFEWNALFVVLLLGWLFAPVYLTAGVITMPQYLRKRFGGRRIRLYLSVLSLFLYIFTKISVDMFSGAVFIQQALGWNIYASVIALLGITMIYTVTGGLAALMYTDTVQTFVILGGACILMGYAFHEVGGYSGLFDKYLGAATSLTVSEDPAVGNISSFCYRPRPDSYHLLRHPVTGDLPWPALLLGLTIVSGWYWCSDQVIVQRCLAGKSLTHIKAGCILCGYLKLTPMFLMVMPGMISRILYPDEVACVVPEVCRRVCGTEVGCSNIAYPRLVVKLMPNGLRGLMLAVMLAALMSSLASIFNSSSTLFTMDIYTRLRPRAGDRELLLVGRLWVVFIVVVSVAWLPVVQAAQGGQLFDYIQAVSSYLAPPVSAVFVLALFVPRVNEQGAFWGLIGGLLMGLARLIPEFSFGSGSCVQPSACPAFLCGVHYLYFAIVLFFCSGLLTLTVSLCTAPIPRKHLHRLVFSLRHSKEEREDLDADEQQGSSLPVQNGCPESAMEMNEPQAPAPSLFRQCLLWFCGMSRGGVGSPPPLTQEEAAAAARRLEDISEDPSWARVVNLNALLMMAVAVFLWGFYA
procedure text: Inhibition of human SGLT2 expressed in COS7 cells assessed as reduction of [14C]-AMG uptake
pIC50: −log10 of the molar value.
Mark label 0 for pIC50 values under 5, and label 1 for everything at or above.

Exam item: Kindly determine if pIC50 recorded for OC[C@H]1O[C@@H](Oc2n[nH]c(C3CC3)c2Cc2ccccc2OCc2ccccc2)[C@H](O)[C@@H](O)[C@@H]1O is above or exactly 5.
Marked response: label 0

Exam item: What do you get for CCc1ccccc1Cc1c(O[C@@H]2O[C@H](CO)[C@@H](O)[C@H](O)[C@H]2O)n[nH]c1C(C)C ?
Marked response: label 0

Exam item: What do you get for OC[C@H]1O[C@@H](Oc2[nH]nc(C(F)(F)F)c2Cc2ccc(O)cc2)[C@H](O)[C@@H](O)[C@@H]1O ?
Marked response: label 1

Exam item: What do you get for Cc1cc(O)ccc1Cc1c(C(C)C)n[nH]c1O[C@@H]1O[C@H](CO)[C@@H](O)[C@H](O)[C@H]1O ?
Marked response: label 1

Exam item: What do you get for CC(C)c1n[nH]c(O[C@@H]2O[C@H](CO)[C@@H](O)[C@H](O)[C@H]2O)c1Cc1ccccc1C(F)(F)F ?
Marked response: label 0

Exam item: What do you get for OC[C@H]1O[C@@H](Oc2n[nH]c(C(F)(F)F)c2Cc2ccccc2O)[C@H](O)[C@@H](O)[C@@H]1O ?
Marked response: label 0

Exam item: What do you get for CC(C)c1[nH]nc(O[C@@H]2O[C@H](CO)[C@@H](O)[C@H](O)[C@H]2O)c1Cc1ccc(C#N)cc1 ?
Marked response: label 1

Exam item: What do you get for COc1ccccc1Cc1c(O[C@@H]2O[C@H](CO)[C@@H](O)[C@H](O)[C@H]2O)n[nH]c1C(C)C ?
Marked response: label 0

Exam item: What do you get for OC[C@H]1O[C@@H](Oc2n[nH]c(C(F)(F)F)c2Cc2ccccc2OCc2ccccc2)[C@H](O)[C@@H](O)[C@@H]1O ?
Marked response: label 0

Exam item: What do you get for CC(C)c1[nH]nc(O[C@@H]2O[C@H](CO)[C@@H](O)[C@H](O)[C@H]2O)c1Cc1ccccc1OCc1ccccc1 ?
Marked response: label 0

Exam item: What do you get for CC(C)(C)c1[nH]nc(O[C@@H]2O[C@H](CO)[C@@H](O)[C@H](O)[C@H]2O)c1Cc1ccccc1OCc1ccccc1 ?
Marked response: label 0

Exam item: What do you get for Cc1cccc(Cc2c(O[C@@H]3O[C@H](CO)[C@@H](O)[C@H](O)[C@H]3O)n[nH]c2C(C)C)c1 ?
Marked response: label 1

Exam item: What do you get for Cc1ccc(Cc2c(O[C@@H]3O[C@H](CO)[C@@H](O)[C@H](O)[C@H]3O)n[nH]c2C(C)C)c(C)c1 ?
Marked response: label 1

Exam item: What do you get for OC[C@H]1O[C@@H](Oc2[nH]nc(C(F)(F)F)c2Cc2cccc(OCc3ccccc3)c2)[C@H](O)[C@@H](O)[C@@H]1O ?
Marked response: label 1

---

Hi there, I'd appreciate the recorded IC50 for every entry that follows.
measured target: Sodium/glucose cotransporter 2 (Homo sapiens)
procedure text: Inhibition of human SGLT2 expressed in COS7 cells assessed as reduction of [14C]-AMG uptake
Number in µM, nothing else.

Exam item: Need IC50 of CC(C)c1[nH]nc(O[C@@H]2O[C@H](CO)[C@@H](O)[C@H](O)[C@H]2O)c1Cc1ccccc1C#N , thanks.
Marked response: 65.7

Exam item: What do you get for CC(C)c1n[nH]c(O[C@@H]2O[C@H](CO)[C@@H](O)[C@H](O)[C@H]2O)c1Cc1ccccc1F ?
Marked response: 1.39

Exam item: What do you get for OC[C@H]1O[C@@H](Oc2n[nH]c(C(F)(F)F)c2Cc2ccc(OCc3ccccc3)cc2)[C@H](O)[C@@H](O)[C@@H]1O ?
Marked response: 0.007

Exam item: What do you get for Cc1ccccc1Cc1c(C(C)C)n[nH]c1O[C@@H]1O[C@H](CO)[C@@H](O)[C@H](O)[C@H]1O ?
Marked response: 18.5
